# Tested on: CAF#2 (primary prostate cancer-associated fibroblasts of iCAF-like type)
# assayComment: drug sensitivity score (DSS2, normalised partial AUC of dose-response, 72 h CellTiter-Glo viability) (DSS (dimensionless)); higher = more sensitive (stronger growth inhibition / cytotoxicity); extreme values may be limits of the assay
quantityMeasured: drug sensitivity score
Output spec: single numeric token, no unit.

Briefly, drug sensitivity score measured for Cn1cc(C[C@@H](N)C(=O)O)c2ccccc21 [Indoximod] (tested concentration range 0.5-5000 nM) : 0

drug sensitivity score reported for this molecule CC(C)N(CCCNC(=O)Nc1ccc(C(C)(C)C)cc1)C[C@H]1O[C@@H](n2cc(Br)c3c(N)ncnc32)[C@H](O)[C@@H]1O [SGC0946] (tested concentration range 1-10000 nM) : 0

# drug sensitivity score of CC[C@@H]1[C@H](F)C(=O)N[C@@H]1COc1nccc2cc(C(N)=O)c(OC)cc12 (tested concentration range 1-10000 nM) = 0.4

For this molecule ( O=C(O)CCCCC(CCSCc1ccccc1)SCc1ccccc1 (stereo unspecified) [Devimistat] (tested concentration range 1-10000 nM) ), measured drug sensitivity score is 0

Reported drug sensitivity score ( Cc1noc2c1-c1ccccc1C(c1ccc(Cl)cc1)=N[C@H]2CC(N)=O [CPI-0610] (tested concentration range 1-10000 nM) ) = 6.5

Note to self: drug sensitivity score recorded for Cc1ccc(=O)n(-c2ccccc2)c1 [Pirfenidone] (tested concentration range 1-10000 nM) was 0

Value source: the supplement of paper PMC12592484
